# target.under.test: soluble guanylate cyclase (sGC) (Homo sapiens, UniProt Q02108+Q02153)
# Construct: endogenously expressing soluble guanylate cyclase (sGC); endogenous in cells; host or cells: HEK293
# procedure.text: sGC-HEK-cGMP assay (run with SNP incubation)
# Assay type: cell-based
# stated.conditions: in the presence of 10 μM SNP; Table 3D; read-out: HEK assay EC50
pEC50: −log10 of the molar value.
Catalogue of pEC50 values

smiles.input	target.under.test	obs.value
CSc1cnc(-c2cc(-c3ccon3)n(Cc3ccccc3F)n2)nc1O	soluble guanylate cyclase (sGC) (Homo sapiens, UniProt Q02108+Q02153)	> 4.70
Oc1nc(-c2cc(-c3ccon3)n(Cc3ccccc3F)n2)ncc1-c1nccs1	soluble guanylate cyclase (sGC) (Homo sapiens, UniProt Q02108+Q02153)	> 4.70
O=c1[nH]c(-c2cc(-c3ccon3)n(Cc3ccccc3F)n2)ncc1S(=O)(=O)N1CCOCC1	soluble guanylate cyclase (sGC) (Homo sapiens, UniProt Q02108+Q02153)	> 4.70

// recorded pEC50 for "Fc1ccccc1Cn1nc(-c2ncc(Br)c(OCc3ccccc3)n2)cc1-c1ccon1" : 2.15 to 2.92

The recorded pEC50 for "Oc1nc(-c2cc(-c3ccon3)n(Cc3ccccc3F)n2)ncc1Sc1ccc(Cl)cc1" is > 4.70

// field: pEC50; key: "Oc1nc(-c2cc(-c3nccs3)n(Cc3ccccc3F)n2)ncc1F" ; value = > 4.70

What the record says about "Oc1nc(-c2cc(-c3ccon3)n(Cc3ccccc3F)n2)ncc1Sc1ccccc1" : pEC50 is > 4.70

Per the records, this compound ( "Nc1nc(-c2cc(-c3ccon3)n(Cc3cccc(F)c3F)n2)ncc1NC(=O)C1(C(F)(F)F)CC1" ) has pEC50 equal to > 4.70

---

# target.under.test: soluble guanylate cyclase (sGC) (Homo sapiens, UniProt Q02108+Q02153)
# Construct: endogenously expressing soluble guanylate cyclase (sGC); endogenous in cells; host or cells: HEK293
# procedure.text: sGC-HEK-cGMP assay (run with SNP incubation)
# Format: cell-based
# stated.conditions: Table 3C; top of concentration-response curve not fitted to 100%; 10 μM SNP; 100% = 30 μM BAY 41-2272 with 10 μM SNP; read-out: HEK assay Emax-unconstrained (Percent)
readout.name: Emax

Examples with answers:
molecule	Emax
Nc1nc(-c2cc(-c3ccon3)n(Cc3cccc(F)c3F)n2)ncc1NC(=O)C12CC3CC(CC(O)(C3)C1)C2 [Compound 107]	40 to 60%
Nc1nc(-c2cc(-c3ccon3)n(Cc3cccc(F)c3F)n2)ncc1NC(=O)c1cc[nH]c1 [Compound 105]	60 to 80%
Fc1ccccc1Cn1nc(-c2ncc3cn[nH]c3n2)cc1-c1ccon1 [Compound 113]	20 to 40%

Moving on to another molecule below.
GET /value?item= Fc1ccccc1Cn1nc(-c2ncc3[nH]cnc3n2)cc1-c1ccon1 [Compound 110] &field=Emax returns 80 to 100%

---

Reported EC50 values for a set of molecules
# target.under.test: soluble guanylate cyclase (sGC) (Homo sapiens, UniProt Q02108+Q02153)
# Construct: endogenously expressing soluble guanylate cyclase (sGC); endogenous in cells; host or cells: HEK293
# Sequence (Q02153 1-619): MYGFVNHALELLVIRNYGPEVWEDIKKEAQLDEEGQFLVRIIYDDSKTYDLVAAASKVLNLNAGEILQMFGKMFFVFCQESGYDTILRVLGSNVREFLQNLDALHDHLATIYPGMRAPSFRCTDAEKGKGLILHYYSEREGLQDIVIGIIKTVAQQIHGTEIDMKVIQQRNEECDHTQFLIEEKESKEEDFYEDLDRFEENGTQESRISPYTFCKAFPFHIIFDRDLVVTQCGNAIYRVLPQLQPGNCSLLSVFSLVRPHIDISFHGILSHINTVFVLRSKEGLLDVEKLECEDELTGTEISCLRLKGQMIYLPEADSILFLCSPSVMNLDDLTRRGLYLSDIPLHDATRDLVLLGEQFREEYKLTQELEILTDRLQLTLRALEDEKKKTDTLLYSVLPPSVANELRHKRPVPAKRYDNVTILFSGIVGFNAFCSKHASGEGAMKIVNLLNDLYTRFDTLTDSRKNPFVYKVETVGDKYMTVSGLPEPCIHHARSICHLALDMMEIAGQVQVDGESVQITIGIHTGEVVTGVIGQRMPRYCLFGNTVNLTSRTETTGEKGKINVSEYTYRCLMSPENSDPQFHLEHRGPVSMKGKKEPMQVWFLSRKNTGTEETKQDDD
# Sequence (Q02108 1-690): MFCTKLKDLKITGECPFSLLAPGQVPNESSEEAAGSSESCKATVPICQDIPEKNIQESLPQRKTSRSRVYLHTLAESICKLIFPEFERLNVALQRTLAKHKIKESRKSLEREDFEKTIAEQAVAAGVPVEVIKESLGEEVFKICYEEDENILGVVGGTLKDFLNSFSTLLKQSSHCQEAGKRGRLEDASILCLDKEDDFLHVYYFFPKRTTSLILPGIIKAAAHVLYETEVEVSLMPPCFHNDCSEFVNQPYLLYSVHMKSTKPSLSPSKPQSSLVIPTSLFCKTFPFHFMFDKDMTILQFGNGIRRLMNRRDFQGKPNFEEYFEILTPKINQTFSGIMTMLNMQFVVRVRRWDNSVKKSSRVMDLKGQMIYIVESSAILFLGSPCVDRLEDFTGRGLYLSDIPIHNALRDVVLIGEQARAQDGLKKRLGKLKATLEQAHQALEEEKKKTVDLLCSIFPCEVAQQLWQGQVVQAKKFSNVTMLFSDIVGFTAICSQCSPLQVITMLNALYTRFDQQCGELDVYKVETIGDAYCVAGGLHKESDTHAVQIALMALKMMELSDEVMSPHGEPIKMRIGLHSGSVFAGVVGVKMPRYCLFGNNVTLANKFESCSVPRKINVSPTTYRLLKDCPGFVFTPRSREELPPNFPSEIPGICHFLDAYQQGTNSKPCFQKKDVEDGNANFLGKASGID
# procedure.text: sGC-HEK-cGMP assay (run with SNP incubation)
# Format: cell-based
# stated.conditions: in the presence of 10 μM SNP; Table 3D; read-out: HEK assay EC50

The reported EC50 of the molecule Oc1nc(-c2cc(-c3ccon3)n(Cc3ccccc3F)n2)ncc1Sc1ccccn1 [Compound 18] was 20 to 40 µM

Looking up Oc1nc(-c2cc(-c3ccon3)n(Cc3ccccc3F)n2)ncc1-c1ncco1 [Compound 38] , I found its EC50 recorded as < 20 µM

Reported EC50 of Oc1nc(-c2cc(-c3ccon3)n(Cc3ccccc3F)n2)ncc1Sc1ccc(C(F)(F)F)cc1 [Compound 17] : 1200 to 7000 µM

---

This section presents compounds with their documented EC50 values.
# target.under.test: soluble guanylate cyclase (sGC) (Homo sapiens, UniProt Q02108+Q02153)
# Construct: endogenously expressing soluble guanylate cyclase (sGC); endogenous in cells; host or cells: HEK293
# procedure.text: sGC-HEK-cGMP assay (run with SNP incubation)
# Type: cell-based
# stated.conditions: in the presence of 10 μM SNP; top of concentration-response curve not fitted to 100%; Table 3D; read-out: HEK assay EC50-unconstrained

smiles.input	EC50
N#CC1(C(=O)Nc2cnc(-c3cc(-c4ncco4)n(Cc4ccccc4F)n3)nc2N)CC1	10 to 500 nM

The recorded EC50 for entry "Oc1nc(-c2cc(-c3ccon3)n(Cc3ccccc3F)n2)ncc1-c1nccs1" equals 500 to 1000 nM

Input "Oc1nc(-c2cc(-c3ccon3)n(Cc3ccccc3F)n2)ncc1Sc1ccc(Cl)cc1" . Output EC50: 1000 to 5000 nM

Value of EC50 reported for the compound "CN(Cc1ccccc1)S(=O)(=O)c1cnc(-c2cc(-c3ccon3)n(Cc3ccccc3F)n2)[nH]c1=O" is 500 to 1000 nM

---

# target.under.test: soluble guanylate cyclase (sGC) (Homo sapiens, UniProt Q02108+Q02153)
# Construct: endogenously expressing soluble guanylate cyclase (sGC); endogenous in cells; host or cells: HEK293
# procedure.text: sGC-HEK-cGMP assay (run with SNP incubation)
# Format: cell-based
# stated.conditions: in the presence of 10 μM SNP; top of concentration-response curve not fitted to 100%; Table 3F; read-out: HEK assay EC50-unconstrained
readout.name: EC50

// solved cases for EC50 follow
compound	EC50
Cn1[nH]c2nc(-c3cc(-c4ccon4)n(Cc4ccccc4F)n3)ncc2c1=O [Compound 112]	10 to 50 µM
Fc1ccccc1Cn1nc(-c2ncc3[nH]cnc3n2)cc1-c1ccon1 [Compound 110]	1 to 5 µM
CN(C)Cc1ccc(C(=O)Nc2cnc(-c3cc(-c4ccon4)n(Cc4cccc(F)c4F)n3)nc2N)cc1 [Compound 102]	1 to 5 µM
Nc1nc(-c2cc(-c3ccon3)n(Cc3ccccc3F)n2)ncc1NC(=O)CCC(F)(F)F [Compound 111]	0.01 to 0.5 µM
Nc1nc(-c2cc(-c3ccon3)n(Cc3ccccc3F)n2)ncc1NC(=O)C(Cl)(Cl)Cl [Compound 98]	0.01 to 0.5 µM

Form: item Fc1ccccc1Cn1nc(-c2ncc3cn[nH]c3n2)cc1-c1ccon1 [Compound 113] ; test system soluble guanylate cyclase (sGC) (Homo sapiens, UniProt Q02108+Q02153); EC50: 0.01 to 0.5 µM

Item: Nc1nc(-c2cc(-c3ccon3)n(Cc3cccc(F)c3F)n2)ncc1NC(=O)c1ccn[nH]1 [Compound 106] | System: soluble guanylate cyclase (sGC) (Homo sapiens, UniProt Q02108+Q02153) | EC50: 5 to 10 µM

Item CC(=O)Nc1n[nH]c2nc(-c3cc(-c4ccon4)n(Cc4ccccc4F)n3)ncc12 [Compound 114] ; assay system soluble guanylate cyclase (sGC) (Homo sapiens, UniProt Q02108+Q02153); EC50 reported as 0.01 to 0.5 µM

Recorded EC50 for CN(C)Cc1cccc(C(=O)Nc2cnc(-c3cc(-c4ccon4)n(Cc4cccc(F)c4F)n3)nc2N)c1 [Compound 104] on soluble guanylate cyclase (sGC) (Homo sapiens, UniProt Q02108+Q02153) was 1 to 5 µM

Known value: soluble guanylate cyclase (sGC) (Homo sapiens, UniProt Q02108+Q02153) EC50 of the compound N#Cc1nc(-c2cc(-c3ccon3)n(Cc3ccccc3F)n2)ncc1F [Compound 115] equals 1 to 5 µM

The reported EC50 value, soluble guanylate cyclase (sGC) (Homo sapiens, UniProt Q02108+Q02153), for Nc1nc(-c2cc(-c3ccon3)n(Cc3cccc(F)c3F)n2)ncc1NC(=O)C12CC3CC(CC(O)(C3)C1)C2 [Compound 107] reads 1 to 5 µM

EC50 of Nc1nc(-c2cc(-c3ccon3)n(Cc3cccc(F)c3F)n2)ncc1NC(=O)c1cc[nH]c1 [Compound 105] , assay on soluble guanylate cyclase (sGC) (Homo sapiens, UniProt Q02108+Q02153), is 0.5 to 1 µM

Just for reference, patent US20150342954A1 is where these values come from.
